Study target: SARS-CoV-2 spike RBD (Wuhan-Hu-1) (Severe acute respiratory syndrome …, UniProt P0DTC2)
Test description: SPR
Quantity measured: pKd
// pKd: -log10(molar conc.)

A selection of reference data follows.
Binder	Observed result
COVIC-362 (antibody, V domains shown) VH: EVQLVESGGGLVQPGGSLRLSCKASGISVAPHAVTWVRQAPGKGLEWIGVIASNADTYYASWAKGRFTISRDNSKNTLYLQMNSLRAEDTAVYYCARHPGSAGYGYTYYYAMDPWGQGTLVTVSS VL: DIQMTQSPSSLSASVGDRVTITCQASERVFYGIDWYQQKPGKAPKLLIYGASALWHGVPSRFSGSGSGTDYTLTISSLQPEDFATYYCQQGYMVPIGFGGGTKVEIK	11.01
COVIC-31 (antibody, V domains shown) VH: EVQLVESGVEVKKPGASVKVSCKAFGYTFTGQDMHWVRQAPGQGLEWMGWINPSSAGTNYAQKFQGRVTMTRDTSISTAYMELSRLRSDDTSVYYCRKMLTIFGKVNQTMLLISGAKGQWSPSLQWGQGTMVTVSS VL: DIVMTQTPLSLSVTPGQPASISCKSGQSLLHSDGKTYLYWYLQKPGQPPQLLIYEVSNRFSGVPDRFSGSGSGTDFTLKISRVEAEDVGVYYCMQSIQLPPTFGQGTKVEIK	7.15
COVIC-238 (antibody, V domains shown) VH: QVQLVQSGSELKKPGASVKVSCKASGYTFTTYVMNWVRQAPGQGLEWMGWINTNTGNPTYAQGFTGRFVFSLDTSVSTASLQISSLKAEDTAVYYCSSEITTLGGMDVWGQGTTVTVSS VL: ASYVLTQPPSVSVAPGKTARITCGGNNIGSKSVHWYQQKPGQAPVLVIYYDSDRPSGIPERFSGSNSGNTATLTISGVEAGDEADYYCQVWDSISDHRVFGGGTKLTVLG	9.06
COVIC-304 (antibody, V domains shown) VH: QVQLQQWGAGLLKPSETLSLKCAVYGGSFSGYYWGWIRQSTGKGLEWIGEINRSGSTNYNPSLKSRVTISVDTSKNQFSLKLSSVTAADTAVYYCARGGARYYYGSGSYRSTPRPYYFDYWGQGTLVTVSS VL: SYELTQPPSVSVAPGETARITCGGDNIGRRHVHWYQQKPGQAPVLVIYDDSDRPSGIPDRFSGSNSGNTATLTIGRVEAGDEADYYCQVWGSSNDPHVFGTGTKLTVLG	6.71
COVIC-94 (antibody, V domains shown) VH: EVQLVESGGGLVQPGGSLRLSCAASGFTFSPSWMGWFRQAPGKEREFVATINEYGGRNYADSVKGRFTISADNSKNTAYLQMNSLKPEDTAVYYCARVDRDFDYWGQGTLVTVSS	8.25

Note: attention shifts to another entry.
Using the record for COVIC-160 (antibody, V domains shown) VH: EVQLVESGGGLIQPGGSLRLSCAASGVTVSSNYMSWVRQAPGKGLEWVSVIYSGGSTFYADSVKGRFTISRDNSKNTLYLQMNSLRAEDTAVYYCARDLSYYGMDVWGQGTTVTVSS VL: DIQLTQSPSFLSASVGDRVTITCWASQGISSYLAWYQQKPGKAPKLLIYAASTLQSGVPSKFSGSGSGTEFTLTISSLQPEDFATYYCQQLNSYPCSFGQGTKLEIKR , report its pKd.
7.83
